Test system: TK-10
Experiment: NCI tumour cell line growth inhibition, 48 h
Active and inactive are the calls of the source. Rule as the data show it: active = GI50 up to about 1.1 µM and inactive = higher.
property-measured: GI50

INSERT INTO results (compound, reading) VALUES
  ('CC(C)(C)OC(=O)C1/C(=C/CO)CN1C(=O)OC(C)(C)C (stereo not given)', '> 100 µM (inactive)'),
  ('N#CCCN(CCC#N)c1ccc(/C=C(/NC(=O)c2cc([N+](=O)[O-])ccc2Cl)C(=O)N=[N+]=[N-])cc1', '> 100 µM (inactive)'),
  ('CSc1nc(C)c2c(n1)N(c1ccc(Cl)cc1)CC2', '> 100 µM (inactive)'),
  ('CN(C)C(=O)C(F)(F)C(c1ccccc1)C1C(=O)N(C)C(=O)N(C)C1=O (stereo not given)', '> 100 µM (inactive)');

Q. Check the records and state GI50 for CCN(CC)C(=S)SC(C(=O)Nc1nnc(-c2ccccc2)o1)c1ccccc1 (stereo not given)
A. 44.5 µM (inactive)
